test system: CCRF-CEM leukemia; test: NCI tumour cell line growth inhibition, 48 h; in the data active means GI50 below about 0.43 µM; inactive means the rest
Answer with one of the outcomes given here: Yes for active, No for inactive

C/C=C1\NC(=O)[C@H]2CSSCCC=C[C@H](CC(=O)N[C@H](C(C)C)C(=O)N2)OC(=O)[C@H](C(C)C)NC1=O :: Yes
O=C1c2cc(Cl)ccc2-c2c1c1ccc([N+](=O)[O-])cc1c(=O)n2CCCBr :: No
Cc1nc2sccn2c1-c1csc(Nc2cccc(Cl)c2C)n1 :: No
Cc1cc2c(cc1C)N(C(=O)CCl)CCN2C(=O)CCl :: Yes
Cc1sc2nc3c4ccccc4c(NCCCN(C)C)nn3c(=O)c2c1C :: No
CC[C@H](Nc1nc(C)nc(N)c1C#N)c1nc2cccc(NCc3ccc(C(=O)NO)cc3)c2c(=O)n1-c1ccccc1 :: No
COc1cc2c(=O)n(CCN)c3c4cc5c(cc4ccc3c2cc1OC)OCO5 :: Yes
Cc1cc2c(cc1Cl)SC1=NN(C)C(N(C)C)N1S2(=O)=O (centres undefined) :: No
CCn1c(-c2nonc2N)nc2c(C#CC(C)(C)O)nc(OCCNC)cc21 :: No
O=C(O)c1ccc2c(c1)CCCC(c1ccc(Cl)cc1Cl)=C2c1ccc(O[C@H]2CCN(CCCF)C2)cc1 :: No

Ask: Which outcome was entered for the compound `Cc1[nH]nc(C(=O)n2nc(N)c3ccccc32)c1[N+](=O)[O-]` in this test?
Reply: No

Ask: In this assay, the call recorded for `COc1ccc2c(c1)/C(=C\c1c(Cl)[nH]c3ccc(OC)cc13)C(=O)N2` was what?
Reply: No

Ask: In this assay, the call recorded for COc1ccc(C2=NN(C=O)C(c3cccc(Nc4ccnc5cc(Cl)ccc45)c3)C2)cc1 (centres undefined) was what?
Reply: No

Ask: Short answer needed: outcome of this test for `COc1ccc(-c2ccc(-c3ccc(C(=N)N)cn3)o2)cc1` ?
Reply: No

Ask: Query: recorded result category for Fc1cc2[nH]ncc2c2c3c(c(-c4cn[nH]c4C(F)(F)F)nc12)C1CCC3C1 (centres undefined) in this test
Reply: No

Ask: Called result for `COc1cc(-c2cn(-c3ccc(Cl)c(Cl)c3)c(=O)n2C(C)=O)cc(OC)c1OC`
Reply: No

Ask: Would you mind telling me which call this test gave `COc1cc2cc(C(=O)N3C[C@H](CCl)c4c3cc(N)c3ccccc43)[nH]c2c(OC)c1OC` ?
Reply: Yes

Ask: Dear colleague, could you share the recorded outcome for NC(N)=NCCC1OC(=O)C2=C1c1c(O)ccc3nccc(c13)O2 (centres undefined) when you have a moment?
Reply: No

Ask: So what was the verdict on `O=C1NC(=S)S/C1=C(/C=C(\CC(=O)c1ccccc1)c1ccc(Cl)cc1)c1ccccc1` in this test?
Reply: No

---

tested on: MDA-MB-435; assay: NCI tumour cell line growth inhibition, 48 h
REPORTED_PROPERTY: TGI

For orientation, consider the following solved cases.
O=C(CCc1cc(O)cc(O)c1)NCCCNC(=O)CCc1cc(O)cc(O)c1 :: > 100 µM
CC(=O)OCC1OC(n2c(-c3ccccc3)c(N=Nc3ccccc3)c(C)c(C#N)c2=S)C(OC(C)=O)C(OC(C)=O)C1OC(C)=O (stereo not given) :: > 100 µM
COc1ccc(Cn2cc3c(c2)-c2oncc2CC3)cc1 :: 5.75 µM
CN1C(=O)N(C)C(O)C(Cl)(Br)C1=O (stereo not given) :: > 100 µM
CC1C(NNc2ccccc2)Oc2cc3c(cc2C1c1ccccc1O)OCO3 (stereo not given) :: 12.5 µM
O=C1c2cc(Cl)ccc2-c2c1c1ccc([N+](=O)[O-])cc1c(=O)n2CCCBr :: > 100 µM

Could you now look at the following molecule, please?
Ask: For the molecule shown here, O=C(O)C1CCCCC1C(=O)O.[NH-]C1CCC1.[NH2-].[Pt+2] (stereo not given) , give the reported TGI.
Reply: 29.3 µM

---

system: PC-3 prostate; test: NCI tumour cell line growth inhibition, 48 h
# TGI values compiled below

Here's what some known entries look like.
Cc1nc2sccn2c1-c1csc(Nc2cccc(Cl)c2C)n1 :: 87.3 µM
NC(=O)c1csc(C2(O)COC(CO)C2O)n1 (configuration not stated) :: > 100 µM
COc1ccccc1CN=C1Nc2ccncc2S(=O)(=O)N1c1ccccc1 :: > 100 µM

Ask: Would you kindly share the measured TGI for Cc1cc2c(cc1Cl)SC1=NN(C)C(N(C)C)N1S2(=O)=O (configuration not stated) ?
Reply: > 100 µM

Ask: Query: TGI; subject: `CCn1c2ccc(O)cc2c2c(C)c3c[n+](C)ccc3c(C)c21`
Reply: > 100 µM

Ask: What does the data say about its TGI? Entry: COc1ccc(C2C3=C(COC3=O)Oc3cc4c(cc32)OCO4)c(OC)c1 (configuration not stated)
Reply: > 100 µM

Ask: Item under review: `O=P(O)(O)c1ccccc1Oc1ccccc1` . Reported TGI?
Reply: > 100 µM

---

test system: NCI-H23 lung; assay: NCI tumour cell line growth inhibition, 48 h; in the data active means GI50 below about 0.43 µM; inactive means the rest
Write down the outcome that applies. Available outcomes: active, inactive

Cc1ccc2nc(-c3ccc(N(C)C)c(Br)c3)cn2c1 :: inactive
Cc1cc(Cl)ccc1Nc1nc(C(F)(F)F)ccc1C(=O)N/N=C/c1ccc([N+](=O)[O-])cc1 :: inactive
Cc1cc2c(cc1Cl)SC1=NN(C)C(N(C)C)N1S2(=O)=O (configuration not stated) :: inactive
COc1ccc(-c2ccc(-c3ccc(C(=N)N)cn3)o2)cc1 :: inactive
COc1cc(C(=O)Nc2cc3c(cc2Oc2cc(C)cc(C)c2)C(=O)N(C)[C@@H](CC(=O)N(C)O)C(=O)N3)c(Br)c(OC)c1OC :: active

Ask: Please let me know the test result on file for `COc1cc2c(=O)n(CCN)c3c4cc5c(cc4ccc3c2cc1OC)OCO5` .
Reply: inactive

Ask: Just curious, what result did `Nc1ccccc1C#C/C=C\C#Cc1ccccc1[N+](=O)[O-]` get here?
Reply: inactive

---

test system: SNB-75 CNS; experiment: NCI tumour cell line growth inhibition, 48 h
Parameter TGI: see the listing below.

CCOC(=O)c1s/c(=N\Nc2nc3ccccc3cc2C2OCCO2)n(Cc2ccccc2)c1C :: > 100 µM
O=S(=O)(c1cc(Cl)ccc1Cl)n1ccnc1 :: > 100 µM
Cc1cc(Cl)ccc1Nc1nc(C(F)(F)F)ccc1C(=O)N/N=C/c1ccc([N+](=O)[O-])cc1 :: 10 µM

Ask: Please report the recorded TGI for Cc1ccccc1C1=C(C(=O)Nc2ccc(Cl)c(Cl)c2)NC(=S)NC1N (stereo unspecified) .
Reply: > 100 µM

Ask: Item `COc1ccc(/C=C\c2cc(OC)c(O[Si](C)(C)C(C)(C)C)c(OC)c2)cc1` has what recorded TGI?
Reply: > 100 µM

Ask: Bench note: what TGI did `COC(=O)Cc1ccc2c(cnn2-c2ccccc2)c1OC` show?
Reply: > 10 µM

---

test system: NCI-H460 lung
Respond using exactly one of the listed classes: active, inactive

Cc1c(C(=O)NCCN2CCOCC2)cn2ncnc(Oc3ccc(NC(=O)Nc4ccc(Cl)c(C(F)(F)F)c4)cc3)c12 :: inactive
Cc1sc2nc3c4ccccc4c(NCCCN(C)C)nn3c(=O)c2c1C :: inactive
CCOc1cc(/C=N\Nc2nnc(C)n2N)c(C)cc1N(CCCl)CCCl :: inactive
Cn1c2c(c3ccc(Cl)c(Cl)c31)C(C#N)C1(CCNCC1)NC2=O (centres undefined) :: inactive
CC[PH+](CC)CC.O=COC1OC([S-])C(OC=O)C(OC=O)C1OC=O.[Au+] (centres undefined) :: inactive

Ask: Recorded test call requested for `CCn1c(-c2nonc2N)nc2c(C#CC(C)(C)O)nc(OCCNC)cc21`
Reply: inactive

Ask: Please let me know the test result on file for `Cc1cc(S(=O)(=O)NC#N)c(S/C(=N\Nc2ccc([N+](=O)[O-])cc2)c2ccc(Cl)cc2)cc1Cl` .
Reply: inactive

Ask: Answer briefly: the call reported for NC(N)=NCCC1OC(=O)C2=C1c1c(O)ccc3nccc(c13)O2 (centres undefined) in this assay.
Reply: inactive

Ask: Name the outcome recorded for COC(=O)C1CCc2sc3ncnc(Nc4cn[nH]c4C(=O)Nc4ccc(CN5CCN(C)CC5)cc4)c3c21 (centres undefined) in the assay.
Reply: active

---

The compounds listed here are annotated with their TGI.
tested on: MOLT-4 leukemia; experiment: NCI tumour cell line growth inhibition, 48 h
Your answer is read as µM, so omit the unit and give the number.

// known answers, use as guide
COc1cc(-c2n/c(=C\c3c(O)[nH]c4ccc(Cl)cc34)cc3c2=Nc2ccccc2-3)ccc1F :: 3.32
O=C1C=CC(=O)c2c(O)c(N3CCC[C@H]3CO)c(Cl)c(O)c21 :: 1.95
COc1cccc2c1C(=O)c1c(O)c3c(c(O)c1C2=O)C[C@H](O)C[C@@H]3OC1CC(N)C(O)C(C)O1 (stereo not given in full) :: 0.144
Cc1cc2c(cc1C)N(C(=O)CCl)CCN2C(=O)CCl :: 1.74
C=C1C(=O)O[C@H]2[C@H]1CC/C(COC(=O)c1cc3cc(Cl)ccc3[nH]1)=C\CC[C@@]1(C)O[C@@H]21 :: 3.37
COc1ccc(/C=C2\CCCC(C(NO)c3ccc(OC)cc3)C2=NO)cc1 (stereo not given) :: 80.5
CN(C)CCNC(=O)c1cc(Cl)cc2ccc(-c3ccccc3)nc12 :: 2.92
COC(=O)C1C(C(=O)OC)C2(OC(c3ccc(Cl)cc3)=CC2=O)C12OC(c1ccc(Cl)cc1)=CC2=O (stereo not given) :: 49.2

Ask: Query: TGI; subject: `CCC[n+]1cc2cc(OC)c(OC)cc2c2c1-c1cc3c(cc1C2)OCO3`
Reply: 11.4

Ask: Consider the compound `CCn1c2ccc(O)cc2c2c(C)c3c[n+](C)ccc3c(C)c21` and give its measured TGI.
Reply: 95.1

Ask: # query: TGI of entry CN(C)CC1CCC/C(=C\c2ccc(OC(=O)c3ccc(Cl)cc3)cc2)C1=O (stereo not given)
Reply: 3.19

Ask: Consider the compound shown here: `Cc1c(CN2CCN(C)CC2)c(CN2CCN(C)CC2)c(C)n1-c1ccc(Cl)cc1` What is its recorded TGI?
Reply: 82.8

Ask: // lookup TGI for `OCCOCn1nncc1Cn1ncc2c(SCc3ccccc3)ncnc21`
Reply: 34
